- Test system: CAKI-1 renal
- assay: NCI-60 one-dose screen, 48 h (100 = growth as untreated, 0 = no growth, -100 = all killed)
- protocol.conditions: 10 µM unless noted
The panel holds about 83,000 compounds, 20% with a hit somewhere; the sample as a whole holds those more often. Active and inactive are the calls of the source. The calls were made as follows: active = growth percent below 10; inactive = the rest.
Collected growth values appear next to each entry.

Example results:
{"molecule": "CN(C)c1ccc(Nc2c3ccccc3nc3ccccc23)cc1", "study.target": "CAKI-1 renal", "growth": "-13.5% (active)"}
{"molecule": "COc1ccc(-c2nsc3c2NC(=O)CC3c2cccc(F)c2)cc1 (stereo unspecified)", "study.target": "CAKI-1 renal", "growth": "38.5% (inactive)"}
{"molecule": "COc1ccc(/C=c2\\c(=O)n(-c3ccccc3)c3nn4c(=O)c(=O)[nH]nc4n23)cc1", "study.target": "CAKI-1 renal", "growth": "90.4% (inactive)"}
{"molecule": "O=C(/C=C/c1cccc([N+](=O)[O-])c1)c1ccc(Nc2nc(N3CCCCC3)nc(N3CCCCC3)n2)cc1", "study.target": "CAKI-1 renal", "growth": "89.6% (inactive)"}
{"molecule": "N#Cc1c(N)c(C(=O)c2ccc3c(c2)OCCO3)n2c1CCCC2", "study.target": "CAKI-1 renal", "growth": "4.26% (active)"}

Prompt: Look at this molecule and give its reported growth. O=C(Nc1ccc(Oc2ccc(Nc3nc4ccccc4s3)cc2)cc1)Nc1ccc(Cl)c(C(F)(F)F)c1
Response: 12.4% (inactive)

Prompt: Look at this molecule and give its reported growth. COc1ccc(-c2nsc3c2NC(=O)CC3c2ccc3c(c2)OCO3)cc1 (stereo unspecified)
Response: 26.1% (inactive)

Prompt: Look at this molecule and give its reported growth. COc1ccc(/C=c2\c(=O)n(-c3ccccc3)c3nn4c(n23)=NNC42CCCCC2)cc1
Response: 85.6% (inactive)

Prompt: Look at this molecule and give its reported growth. CCCCCCCCCCCCCCC(C(=O)OCC)C(=O)OCC
Response: 90.8% (inactive)

====

- Test system: NCI-H322M lung
- assay: NCI-60 one-dose screen, 48 h (100 = growth as untreated, 0 = no growth, -100 = all killed)
- protocol.conditions: 10 µM unless noted
The panel holds about 83,000 compounds, 20% with a hit somewhere; the sample as a whole holds those more often.
quantity.measured: growth (%)
Answer in %, number only, no unit symbol.

Example results:
{"molecule": "CCN1CCN(Cc2ccc(NC(=O)c3nc4ccc5[nH]ncc5c4c4c3CCCC4)cc2C(F)(F)F)CC1", "study.target": "NCI-H322M lung", "growth / %": 2.39}
{"molecule": "COc1c(B(O)O)cccc1-c1nc2c(F)cc3n[nH]c(C)c3c2c2c1CCCC2", "study.target": "NCI-H322M lung", "growth / %": 27.6}
{"molecule": "COCCCNCC(=O)Nc1c(C)cccc1C", "study.target": "NCI-H322M lung", "growth / %": 139}
{"molecule": "COc1ccc(C(=O)c2cc(C)c(OC)c(C)c2)cc1OC(=O)CCl", "study.target": "NCI-H322M lung", "growth / %": 42.7}
{"molecule": "COc1cc2nccc(Oc3ccc(NC(=O)C4(C(=O)Nc5c(F)cc(F)cc5F)CC4)cc3)c2cc1Oc1ccc(N)cn1", "study.target": "NCI-H322M lung", "growth / %": 74.8}

Prompt: NCI-H322M lung / growth / O=C1C(Cl)=C(N/N=c2/[nH][nH]/c(=N/NC3=C(Cl)C(=O)c4ccccc4C3=O)c3ccccc23)C(=O)c2ccccc21 : value?
Response: 58.4

Prompt: NCI-H322M lung / growth / COC(=O)c1ccc(NC(N)=NCCC(C)(C)c2ccc(C(F)(F)F)cc2)nc1 : value?
Response: 74.5

Prompt: NCI-H322M lung / growth / O=C(/C=C/c1ccccc1)n1c(-c2ccccc2)nc2ccccc21 : value?
Response: 108

Prompt: NCI-H322M lung / growth / OC(c1cc(-c2ccc(C(F)(F)F)cc2)nc(-c2ccc(C(F)(F)F)cc2)c1)C1CCCCN1 (stereo not given) : value?
Response: -79.5

Prompt: NCI-H322M lung / growth / C=CCn1c(SCC(=O)Nc2ccc(/C(C)=N\O)cc2)nnc1-c1cc(-c2ccc(Cl)cc2)nc2ccccc12 : value?
Response: 26.2

Prompt: NCI-H322M lung / growth / COc1ccc(C(=O)C(CN(C)C)c2ccccc2)cc1 (stereo not given) : value?
Response: 96

Prompt: NCI-H322M lung / growth / Cc1c(O)c(=O)n(-c2ccccc2)n1C : value?
Response: 108

Prompt: NCI-H322M lung / growth / CCC(=O)NC(O)C(Cl)(Cl)C(C)Cl (stereo not given) : value?
Response: 99.6

Prompt: NCI-H322M lung / growth / COc1ccc(-c2cn(-c3cccc(C(=O)/C=C/c4ccc(O)c(OC)c4)c3)c(=O)[nH]2)cc1 : value?
Response: 64.8

Prompt: NCI-H322M lung / growth / COc1ccc(-c2nnc(SCC(=O)Nc3ccc(C(=O)/C=C/c4ccc(Cl)cc4)cc3)n2-c2ccccc2)cc1 : value?
Response: 118

Prompt: NCI-H322M lung / growth / COc1cccc(CC(C)=C(c2ccc(OCCCN(C)C)cc2)c2ccc(OCCCN(C)C)cc2)c1 : value?
Response: -95

Prompt: NCI-H322M lung / growth / COc1ccc2c(c1)CCCC21C(=O)Nc2ccccc21 (stereo not given) : value?
Response: 91.6

Prompt: NCI-H322M lung / growth / COc1cc(-c2n/c(=C\c3c(O)[nH]c4cc(Cl)ccc34)cc3c2=Nc2ccccc2-3)cc(OC)c1OC : value?
Response: 62.3

Prompt: NCI-H322M lung / growth / O=C(O)c1ccccc1N=Cc1ccccc1 : value?
Response: 120

Prompt: NCI-H322M lung / growth / CCOC(CN1CCN(CC(C)C(=O)c2ccccc2)CC1)c1ccccc1 (stereo not given) : value?
Response: 95.5
